Target: T1, SCREAM (SCRM), recombinant full-length protein (1-494) (A. thaliana, UniProt Q9LSE2 1-494)
T1 construct: SCRM (ICE1), A. thaliana, residues 1-494; called full-length in the results; The methods describe thrombin removal of GST for all recombinant proteins; For the BLI runs of SCRM with MUTE one partner must have kept GST (anti-GST probes); also called ICE1; source: E. coli BL21, purified (glutathione resin, thrombin digestion, Superdex-200); not shown: GST, N-terminal, cleaved
T1 sequence (looked up): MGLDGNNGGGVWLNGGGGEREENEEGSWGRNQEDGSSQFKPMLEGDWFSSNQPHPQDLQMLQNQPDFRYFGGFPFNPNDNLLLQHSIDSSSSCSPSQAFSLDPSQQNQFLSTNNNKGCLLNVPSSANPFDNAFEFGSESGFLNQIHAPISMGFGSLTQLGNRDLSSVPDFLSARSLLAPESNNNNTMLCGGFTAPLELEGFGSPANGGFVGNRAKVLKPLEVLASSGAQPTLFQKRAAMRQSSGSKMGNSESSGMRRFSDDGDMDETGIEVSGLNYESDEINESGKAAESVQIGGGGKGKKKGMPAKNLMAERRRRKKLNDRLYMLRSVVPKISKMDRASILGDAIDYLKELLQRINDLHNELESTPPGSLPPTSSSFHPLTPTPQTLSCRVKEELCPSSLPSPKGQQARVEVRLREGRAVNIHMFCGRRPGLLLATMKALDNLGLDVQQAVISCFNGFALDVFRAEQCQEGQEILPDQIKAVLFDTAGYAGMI
Test: BLI; SCRM with MUTE or MUTE mutants, no compound; Octet Red96, anti-GST probes loaded with 500 nM GST-tagged protein; 30 °C; 1x PBS, 2% DMSO, 0.02% Tween20; 1:1 model; KD (SS) from steady-state analysis
Details: both partners purified
Metric: Kd (nM)
One number for each entry, in nM.

Exercise: Consider the binder shown here: MUTE, recombinant full-length protein (1-202), as used in BLI with SCRM (natural protein, A. thaliana, UniProt Q9M8K6 1-202, looked up, BLI probes were anti-GST and loaded with 500 nM GST-tagged protein; source: E. coli BL21, purified (glutathione resin)) MSHIAVERNRRRQMNEHLKSLRSLTPCFYIKRGDQASIIGGVIEFIKELQQLVQVLESKKRRKTLNRPSFPYDHQTIEPSSLGAATTRVPFSRIENVMTTSTFKEVGACCNSPHANVEAKISGSNVVLRVVSRRIVGQLVKIISVLEKLSFQVLHLNISSMEETVLYFFVVKIGLECHLSLEELTLEVQKSFVSDEVIVSTN What is its recorded Kd?
Key: 6.8
